# assay_summary: Cytotoxicity against human HeLa cells assessed as alterations in normal cell morphology measured after 3 to 6 days by microscopic analysis
# Assay type: cell-based
measured_parameter: MCC

Sure, the documented MCC for COc1cccc(N2C(N)=NC(N)=NC23CCNCC3)c1 is > 100 µM

Sure, the documented MCC for NC1=NC2(CCNCC2)N(c2cccc(Cl)c2)C(N)=N1 is > 100 µM

Sure, the documented MCC for COCCN1C(N)=NC(N)=NC12CCN(C(=O)c1cccn1C)CC2 is > 100 µM

Sure, the documented MCC for NC1=NC2(CCN(C(=O)Nc3ccc(F)cc3)CC2)N(c2cccc(Cl)c2)C(N)=N1 is ≥ 100 µM

----------
Give CC50 for every item shown.
# Test system: MDCK
# assay_summary: Cytotoxicity against MDCK cells assessed as reduction in cell viability measured after 3 to 6 days by MTS assay
# Assay type: cell-based, Canis lupus familiaris
# condition_details: dog

Entry COc1cccc(N2C(N)=NC(N)=NC23CCNCC3)c1 , MDCK data, CC50 value: > 100 µM

Entry CC(N)C12CC3CC(CC(C3)C1)C2 (centres undefined) , MDCK data, CC50 value: > 500 µM

Entry CCCCC(=O)N1CCC2(CC1)N=C(N)N=C(N)N2c1cccc(OC)c1 , MDCK data, CC50 value: > 100 µM

Entry COc1cccc(N2C(N)=NC(N)=NC23CCN(C(=O)OC(C)(C)C)CC3)c1 , MDCK data, CC50 value: > 100 µM
